test system: 8505C; assay: Cytotoxicity against human 8505C cells assessed as cell survival after 96 hrs by sulforhodamine B assay; format: functional, cell-based
A collection of molecules and their measured EC50
// note: answer is a bare numeric in µM

Past entries and their recorded results:
1) CC1(C)CC[C@]2(C(=O)OCc3ccc(F)cc3F)CC[C@]3(C)C(=CC[C@@H]4[C@@]5(C)CC[C@H](O)[C@@](C)(CO)[C@@H]5CC[C@]43C)[C@@H]2C1 | 8
2) C#CCOC(=O)[C@]12CCC(C)(C)C[C@H]1C1=CC[C@@H]3[C@@]4(C)CC[C@H](O)[C@@](C)(CO)[C@@H]4CC[C@@]3(C)[C@]1(C)CC2 | 13.2
3) CC1(C)CC[C@]2(C(=O)OCc3ccc(Br)cc3)CC[C@]3(C)C(=CC[C@@H]4[C@@]5(C)CC[C@H](O)[C@@](C)(CO)[C@@H]5CC[C@]43C)[C@@H]2C1 | 8.6
4) CC1(C)CC[C@]2(C(=O)NCc3ccccc3)CC[C@]3(C)C(=CC[C@@H]4[C@@]5(C)CC[C@H](O)[C@@](C)(CO)[C@@H]5CC[C@]43C)[C@@H]2C1 | 13.5
5) COc1cc(COC(=O)[C@]23CCC(C)(C)C[C@H]2C2=CC[C@@H]4[C@@]5(C)CC[C@H](O)[C@@](C)(CO)[C@@H]5CC[C@@]4(C)[C@]2(C)CC3)cc(OC)c1 | 12.8

Prompt: Please tell me: EC50 of CC1(C)CC[C@]2(C(=O)OCc3cccc([N+](=O)[O-])c3)CC[C@]3(C)C(=CC[C@@H]4[C@@]5(C)CC[C@H](O)[C@@](C)(CO)[C@@H]5CC[C@]43C)[C@@H]2C1 , system 8505C?
Completion: 6.6

Prompt: Query the reported EC50 for 8505C; item: CC1(C)CC[C@]2(C(=O)OCc3ccccc3)CC[C@]3(C)C(=CC[C@@H]4[C@@]5(C)CC[C@H](O)[C@@](C)(CO)[C@@H]5CC[C@]43C)[C@@H]2C1
Completion: 7.6

Prompt: // map CC1(C)CC[C@]2(C(=O)OCCCN3C(=O)c4ccccc4C3=O)CC[C@]3(C)C(=CC[C@@H]4[C@@]5(C)CC[C@H](O)[C@@](C)(CO)[C@@H]5CC[C@]43C)[C@@H]2C1 to recorded EC50 (system: 8505C)
Completion: 10.3

Prompt: Kindly state the measured EC50 obtained for CC1(C)CC[C@]2(C(=O)OCc3ccc([N+](=O)[O-])cc3)CC[C@]3(C)C(=CC[C@@H]4[C@@]5(C)CC[C@H](O)[C@@](C)(CO)[C@@H]5CC[C@]43C)[C@@H]2C1 with 8505C.
Completion: 6.1

Prompt: Give EC50 (8505C) of the following molecule: CC1(C)CC[C@]2(C(=O)OCc3cccc(Cl)c3)CC[C@]3(C)C(=CC[C@@H]4[C@@]5(C)CC[C@H](O)[C@@](C)(CO)[C@@H]5CC[C@]43C)[C@@H]2C1
Completion: 11.9

====

Known log10(EC50) of a selection of compounds
system: HT-29; assay: Cytotoxicity against human HT-29 cells assessed as cell survival after 96 hrs by sulforhodamine B assay; assay type: functional, cell-based; details: HT-29, 96 h
// units: µM (pre-log); metric: EC50; scale: log10

1. CC1(C)CC[C@]2(C(=O)OCc3cccc([N+](=O)[O-])c3)CC[C@]3(C)C(=CC[C@@H]4[C@@]5(C)CC[C@H](O)[C@@](C)(CO)[C@@H]5CC[C@]43C)[C@@H]2C1 | 1.08
2. CC1(C)CC[C@]2(C(=O)OCc3ccccc3F)CC[C@]3(C)C(=CC[C@@H]4[C@@]5(C)CC[C@H](O)[C@@](C)(CO)[C@@H]5CC[C@]43C)[C@@H]2C1 | 1.12
3. CC1(C)CC[C@]2(C(=O)OCCC3OCCCO3)CC[C@]3(C)C(=CC[C@@H]4[C@@]5(C)CC[C@H](O)[C@@](C)(CO)[C@@H]5CC[C@]43C)[C@@H]2C1 | 1.13
4. CC1(C)CC[C@]2(C(=O)OCc3ccc(Br)cc3)CC[C@]3(C)C(=CC[C@@H]4[C@@]5(C)CC[C@H](O)[C@@](C)(CO)[C@@H]5CC[C@]43C)[C@@H]2C1 | 1.14
5. CC1(C)CC[C@]2(C(=O)OCc3ccc(F)cc3)CC[C@]3(C)C(=CC[C@@H]4[C@@]5(C)CC[C@H](O)[C@@](C)(CO)[C@@H]5CC[C@]43C)[C@@H]2C1 | 1.05
6. COc1cc(COC(=O)[C@]23CCC(C)(C)C[C@H]2C2=CC[C@@H]4[C@@]5(C)CC[C@H](O)[C@@](C)(CO)[C@@H]5CC[C@@]4(C)[C@]2(C)CC3)cc(OC)c1 | 1.15
7. CC1(C)CC[C@]2(C(=O)OCCCN3C(=O)c4ccccc4C3=O)CC[C@]3(C)C(=CC[C@@H]4[C@@]5(C)CC[C@H](O)[C@@](C)(CO)[C@@H]5CC[C@]43C)[C@@H]2C1 | 1.13
8. Cc1ccccc1COC(=O)[C@]12CCC(C)(C)C[C@H]1C1=CC[C@@H]3[C@@]4(C)CC[C@H](O)[C@@](C)(CO)[C@@H]4CC[C@@]3(C)[C@]1(C)CC2 | 1.12
9. C#CCNC(=O)[C@]12CCC(C)(C)C[C@H]1C1=CC[C@@H]3[C@@]4(C)CC[C@H](O)[C@@](C)(CO)[C@@H]4CC[C@@]3(C)[C@]1(C)CC2 | 1.24

Attention now shifts to the item below.
Prompt: Bench note: what log10(EC50) did CC1(C)CC[C@]2(C(=O)NCCN3CCCCC3)CC[C@]3(C)C(=CC[C@@H]4[C@@]5(C)CC[C@H](O)[C@@](C)(CO)[C@@H]5CC[C@]43C)[C@@H]2C1 show?
Completion: 0.11

====

tested on: 8505C; test: Cytotoxicity against human 8505C cells assessed as cell survival after 96 hrs by sulforhodamine B assay; assay type: functional, cell-based
readout_kind: EC50 (µM)
Give just the numeric value; µM need not be written.

Below: 2 molecules and their reported EC50.
1. CC1(C)CC[C@]2(C(=O)OCc3ccccc3[N+](=O)[O-])CC[C@]3(C)C(=CC[C@@H]4[C@@]5(C)CC[C@H](O)[C@@](C)(CO)[C@@H]5CC[C@]43C)[C@@H]2C1 | 8.8
2. Cc1ccc(COC(=O)[C@]23CCC(C)(C)C[C@H]2C2=CC[C@@H]4[C@@]5(C)CC[C@H](O)[C@@](C)(CO)[C@@H]5CC[C@@]4(C)[C@]2(C)CC3)cc1 | 8.8

Prompt: What value of EC50 has been reported for the following molecule? CC1(C)CC[C@]2(C(=O)OCc3ccccc3Cl)CC[C@]3(C)C(=CC[C@@H]4[C@@]5(C)CC[C@H](O)[C@@](C)(CO)[C@@H]5CC[C@]43C)[C@@H]2C1
Completion: 9.5

====

Listing of entries alongside the reported pEC50.
system: HT-29; assay: Cytotoxicity against human HT-29 cells assessed as cell survival after 96 hrs by sulforhodamine B assay; assay type: functional, cell-based; settings: HT-29, 96 h
# reply with the number alone; pEC50 is -log10 of concentration in mol/L

1. CC1(C)CC[C@]2(C(=O)OCc3ccc(Cl)cc3)CC[C@]3(C)C(=CC[C@@H]4[C@@]5(C)CC[C@H](O)[C@@](C)(CO)[C@@H]5CC[C@]43C)[C@@H]2C1 | 4.87
2. CC1(C)CC[C@]2(C(=O)OCc3c(F)cccc3F)CC[C@]3(C)C(=CC[C@@H]4[C@@]5(C)CC[C@H](O)[C@@](C)(CO)[C@@H]5CC[C@]43C)[C@@H]2C1 | 4.92

Prompt: Please report the recorded pEC50 for CC1(C)CC[C@]2(C(=O)NCCN3CCCC3)CC[C@]3(C)C(=CC[C@@H]4[C@@]5(C)CC[C@H](O)[C@@](C)(CO)[C@@H]5CC[C@]43C)[C@@H]2C1 .
Completion: 5.92

====

system: HT-29; experiment: Cytotoxicity against human HT-29 cells assessed as cell survival after 96 hrs by sulforhodamine B assay; format: functional, cell-based; conditions: HT-29, 96 h
Reported EC50 is given for each of the following compounds.
Provide a numeric answer, followed by its unit.

1. CC1(C)CC[C@]2(C(=O)O)CC[C@]3(C)C(=CC[C@@H]4[C@@]5(C)CC[C@H](O)[C@@](C)(CO)[C@@H]5CC[C@]43C)[C@@H]2C1 | 50 µM

Prompt: Tell me reported EC50 for CC1(C)CC[C@]2(C(=O)OCc3c(F)c(F)c(F)c(F)c3F)CC[C@]3(C)C(=CC[C@@H]4[C@@]5(C)CC[C@H](O)[C@@](C)(CO)[C@@H]5CC[C@]43C)[C@@H]2C1 , tested with HT-29.
Completion: 16.1 µM

Prompt: GET /values?readout=EC50&system=HT-29&item= CC1(C)CC[C@]2(C(=O)On3nnc4ccccc43)CC[C@]3(C)C(=CC[C@@H]4[C@@]5(C)CC[C@H](O)[C@@](C)(CO)[C@@H]5CC[C@]43C)[C@@H]2C1
Completion: 11.2 µM

Prompt: Find the measured EC50: item C#CCOC(=O)[C@]12CCC(C)(C)C[C@H]1C1=CC[C@@H]3[C@@]4(C)CC[C@H](O)[C@@](C)(CO)[C@@H]4CC[C@@]3(C)[C@]1(C)CC2 , target or system HT-29.
Completion: 17.7 µM

Prompt: Requested read-out EC50, target or system HT-29, entry CC1(C)CC[C@]2(C(=O)OCc3ccccc3[N+](=O)[O-])CC[C@]3(C)C(=CC[C@@H]4[C@@]5(C)CC[C@H](O)[C@@](C)(CO)[C@@H]5CC[C@]43C)[C@@H]2C1
Completion: 12.8 µM

Prompt: Request - read-out EC50 | tested on HT-29 | compound CC1(C)CC[C@]2(C(=O)OCc3ccc(F)cc3F)CC[C@]3(C)C(=CC[C@@H]4[C@@]5(C)CC[C@H](O)[C@@](C)(CO)[C@@H]5CC[C@]43C)[C@@H]2C1
Completion: 13 µM

Prompt: Item: CC1(C)CC[C@]2(C(=O)OCc3ccccc3)CC[C@]3(C)C(=CC[C@@H]4[C@@]5(C)CC[C@H](O)[C@@](C)(CO)[C@@H]5CC[C@]43C)[C@@H]2C1 Test system: HT-29 Read-out: EC50 Value: ?
Completion: 9.5 µM

Prompt: Checklist item: EC50 tested on HT-29, entry CC1(C)CC[C@]2(C(=O)OCc3cccc(Br)c3)CC[C@]3(C)C(=CC[C@@H]4[C@@]5(C)CC[C@H](O)[C@@](C)(CO)[C@@H]5CC[C@]43C)[C@@H]2C1 , value?
Completion: 15.3 µM

Prompt: Observed EC50 on HT-29 for CC1(C)CC[C@]2(C(=O)OCc3ccccc3Br)CC[C@]3(C)C(=CC[C@@H]4[C@@]5(C)CC[C@H](O)[C@@](C)(CO)[C@@H]5CC[C@]43C)[C@@H]2C1 , please.
Completion: 14.3 µM

Prompt: Form: Entry = CC1(C)CC[C@]2(C(=O)OCc3cccc(Cl)c3)CC[C@]3(C)C(=CC[C@@H]4[C@@]5(C)CC[C@H](O)[C@@](C)(CO)[C@@H]5CC[C@]43C)[C@@H]2C1 | System = HT-29 | EC50 = ____
Completion: 14.8 µM

Prompt: Any idea what EC50 came out for CC1(C)CC[C@]2(C(=O)OCc3ccccc3Cl)CC[C@]3(C)C(=CC[C@@H]4[C@@]5(C)CC[C@H](O)[C@@](C)(CO)[C@@H]5CC[C@]43C)[C@@H]2C1 on HT-29?
Completion: 13.5 µM

Taken from ChEMBL document CHEMBL3632609.
